biological target: recombinant human VAP-1 (Homo sapiens, UniProt Q16853); construct: purchased R&D systems; assay: Activity on recombinant human VAP-1, Amplex Red HRP-coupled hydrogen peroxide assay, benzylamine substrate; format: biochemical; details: recombinant human VAP-1, benzylamine substrate, 30 min preincubation at 37° C.; read-out: Inhibitory Activity (IC50, nM) human VAP-1
Sequence (Q16853 whole entry): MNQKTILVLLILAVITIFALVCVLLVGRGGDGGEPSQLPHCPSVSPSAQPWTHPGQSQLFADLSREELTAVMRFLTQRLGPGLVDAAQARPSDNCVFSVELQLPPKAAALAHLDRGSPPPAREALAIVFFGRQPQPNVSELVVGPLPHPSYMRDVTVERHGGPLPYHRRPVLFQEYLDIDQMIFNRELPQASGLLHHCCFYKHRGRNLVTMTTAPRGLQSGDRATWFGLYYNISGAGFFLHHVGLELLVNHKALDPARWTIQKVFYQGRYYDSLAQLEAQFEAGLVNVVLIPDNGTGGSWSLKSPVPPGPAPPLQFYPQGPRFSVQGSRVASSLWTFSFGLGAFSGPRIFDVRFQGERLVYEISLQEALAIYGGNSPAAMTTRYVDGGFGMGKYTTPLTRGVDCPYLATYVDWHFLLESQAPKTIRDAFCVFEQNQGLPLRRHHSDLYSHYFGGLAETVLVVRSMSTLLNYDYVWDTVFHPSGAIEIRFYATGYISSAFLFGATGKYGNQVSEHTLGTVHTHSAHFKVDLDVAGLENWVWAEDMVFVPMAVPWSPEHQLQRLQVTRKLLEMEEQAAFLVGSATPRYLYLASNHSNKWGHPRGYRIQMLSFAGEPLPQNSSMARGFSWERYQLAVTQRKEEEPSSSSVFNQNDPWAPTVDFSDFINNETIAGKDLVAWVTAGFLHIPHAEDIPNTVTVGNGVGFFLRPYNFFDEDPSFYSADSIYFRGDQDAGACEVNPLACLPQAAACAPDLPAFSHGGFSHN
Counter-ions that a name gives are not always drawn.
parameter: IC50
Value and unit, in that order.

Here are 3 compounds together with their reported answers.
compound: CS(=O)(=O)c1ccc(-c2ccc(-n3cnn(C/C(=C\F)CN)c3=O)nc2)cc1 [Example 129, hydrochloride]
IC50: 0.45 nM

compound: NC/C(=C/F)Cn1ncn(-c2ccc(OCc3ccccc3)cc2)c1=O [Example 7]
IC50: 0.88 nM

compound: NC/C(=C\F)Cn1ncn(-c2cnc(Br)cn2)c1=O [Example 38]
IC50: 4.4 nM

In the following, a different compound is considered.
[Q] Give recorded IC50 with recombinant human VAP-1 (Homo sapiens, UniProt Q16853) for the following compound: CN(C)S(=O)(=O)c1ccc(-c2cccc(-n3cnn(C/C(=C/F)CN)c3=O)c2)cc1 [Example 55, hydrochloride]
[A] 0.3 nM
